Tested on: U937 cells
TEST_PROTOCOL: EC50 of necroptosis inhibition in U937 cells (TSZ-induced, CellTiter-Glo)
Assay type: cell-based
CONDITIONS_USED: Homo sapiens, U-937; TSZ (hTNF-α, SM-164, Z-VAD-FMK) 20 hours; 10 concentration points; read-out: EC50 intervals of necroptosis inhibition in U937 cells
ASSAY_ENDPOINT: EC50

Example compounds with recorded EC50:
CC(Cc1ccccc1)NC(=O)C(=O)N[C@H]1COc2ccc(C#CCCO)cc2N(C)C1=O (mixture of isomers)	100 to 500 nM
CN1C(=O)[C@@H](NC(=O)C(=O)NCCc2ccccc2)COc2ccc(C#CC3CCN(CCOCCOCC(=O)OC(C)(C)C)CC3)cc21	< 100 nM

Kindly consider the entry below.
Qu. API: value(readout= EC50, system= U937 cells, query= C[C@@H](NC(=O)C(=O)N[C@H]1COc2ccc(C#CCN3CC[C@H](O)C3)cc2N(C)C1=O)c1ccccc1 )
Ans. < 100 nM
